test system: HSF; assay: Proliferation by impedance biosensor (RTCA DP Analyzer); type: cell-based; details: Homo sapiens, 72 h, incubation three days, read-out: IC50 inhibitory concentration, HSF
pIC50: −log10 of the molar value.

# Molecule, pIC50
records = [
    ("COc1cccc2c1C(=O)c1c(O)c3c(c(O)c1C2=O)CC(O)(C(=O)CO)CC3OC1CC(NC(=O)/C=C/c2cnc(C)c3c2COC(C)(C)O3)C(O)C(C)O1 (stereo not shown) [DOX-2]", "~4.00"),
]

====

tested on: NCI-H322M; assay: MTS cytotoxicity assay; settings: Homo sapiens, 72 h, read-out: Cytotoxic concentration IC50, NCI-H322M
A collection of compounds and their measured IC50
Observed Property: IC50 (µM)

# Compound, Observed Property, Unit Of Measurement, Readout Relation, Reported Result
records = [
    ("COc1cccc2c1C(=O)c1c(O)c3c(c(O)c1C2=O)CC(O)(C(=O)CO)CC3OC1CC(NC(=O)c2cnc(C)c3c2COC(C)(C)O3)C(O)C(C)O1 (stereo not drawn)", "IC50", "µM", "=", 7.2),
    ("COc1cccc2c1C(=O)c1c(O)c3c(c(O)c1C2=O)C[C@@](O)(C(=O)CO)C[C@@H]3O[C@H]1C[C@H](N)[C@H](O)[C@H](C)O1 [DOX, Doxorubicin, reference compound]", "IC50", "µM", "=", 2.46),
    ("COc1cccc2c1C(=O)c1c(O)c3c(c(O)c1C2=O)CC(O)(C(=O)CO)CC3OC1CC(NC(=O)/C=C/c2cnc(C)c3c2COC(C)(C)O3)C(O)C(C)O1 (stereo not drawn)", "IC50", "µM", ">", 200),
]

====

experiment: Colony formation assay; type: cell-based, mouse; details: mouse, C2C12 cells, 100 μM, read-out: C2C12 cells remaining viable

# Compound, viability at 3 days, 100 µM
measured = [
    ("COc1cccc2c1C(=O)c1c(O)c3c(c(O)c1C2=O)CC(O)(C(=O)CO)CC3OC1CC(NC(=O)/C=C/c2cnc(C)c3c2COC(C)(C)O3)C(O)C(C)O1 (stereo not shown)", "30%"),
]

====

system: MDA-MB-231; experiment: MTS cytotoxicity assay; conditions: Homo sapiens, MDA-MB-231, 72 h, read-out: Cytotoxic concentration IC50, MDA-MB-231
Here the recorded IC50 is given for each entry.

# Molecule, System Tested, IC50 [nM]
data = [
    ("COc1cccc2c1C(=O)c1c(O)c3c(c(O)c1C2=O)CC(O)(C(=O)CO)CC3OC1CC(NC(=O)/C=C/c2cnc(C)c3c2COC(C)(C)O3)C(O)C(C)O1 (stereo not drawn)", "MDA-MB-231", 1580),
    ("COc1cccc2c1C(=O)c1c(O)c3c(c(O)c1C2=O)C[C@@](O)(C(=O)CO)C[C@@H]3O[C@H]1C[C@H](N)[C@H](O)[C@H](C)O1 [DOX, Doxorubicin, reference compound]", "MDA-MB-231", 730),
    ("COc1cccc2c1C(=O)c1c(O)c3c(c(O)c1C2=O)CC(O)(C(=O)CO)CC3OC1CC(NC(=O)c2cnc(C)c3c2COC(C)(C)O3)C(O)C(C)O1 (stereo not drawn)", "MDA-MB-231", 4050),
]

====

test system: PC-3; experiment: Colony formation assay; type: cell-based; settings: Homo sapiens, PC-3, 72 h, read-out: Inhibitory concentration IC50, PC-3
Observed Property: IC50

# Molecule, System Tested, Observed Property, Reported Result
measured = [
    ("COc1cccc2c1C(=O)c1c(O)c3c(c(O)c1C2=O)CC(O)(C(=O)CO)CC3OC1CC(NC(=O)c2cnc(C)c3c2COC(C)(C)O3)C(O)C(C)O1 (centres unmarked)", "PC-3", "IC50", "3200 nM"),
    ("COc1cccc2c1C(=O)c1c(O)c3c(c(O)c1C2=O)CC(O)(C(=O)CO)CC3OC1CC(NC(=O)/C=C/c2cnc(C)c3c2COC(C)(C)O3)C(O)C(C)O1 (centres unmarked)", "PC-3", "IC50", "1660 nM"),
]

====

experiment: MTS cytotoxicity assay; details: mouse, C2C12 immortalized myoblasts

# Compound, Unit Of Measurement, IC50 at 72 h
records = [
    ("COc1cccc2c1C(=O)c1c(O)c3c(c(O)c1C2=O)C[C@@](O)(C(=O)CO)C[C@@H]3O[C@H]1C[C@H](N)[C@H](O)[C@H](C)O1 [DOX, Doxorubicin, reference compound]", "nM", 45),
]

====

Experiment: MTS cytotoxicity assay
Details: human, MSC multipotent stem cells derived from adipose tissue
Description: […] The cytotoxicity of the compounds under study was assessed using MTS assay on cell cultures. […] After 2 h of incubation, the resulting water-soluble formazan was measured using the TECAN Infinite M200 Pro microplate reader at wavelengths of 555/750 nm. […]

# Compound, IC50 at 72 h / nM
records = [
    ("COc1cccc2c1C(=O)c1c(O)c3c(c(O)c1C2=O)C[C@@](O)(C(=O)CO)C[C@@H]3O[C@H]1C[C@H](N)[C@H](O)[C@H](C)O1 [DOX, Doxorubicin, reference compound]", 1100),
]

====

tested on: MCF-7; assay: Proliferation by impedance biosensor (RTCA DP Analyzer); assay type: cell-based; settings: Homo sapiens, MCF7, 72 h, incubation three days, read-out: IC50 inhibitory concentration, MCF-7
pIC50: −log10 of the molar value.

# Molecule, pIC50
measured = [
    ("COc1cccc2c1C(=O)c1c(O)c3c(c(O)c1C2=O)CC(O)(C(=O)CO)CC3OC1CC(NC(=O)/C=C/c2cnc(C)c3c2COC(C)(C)O3)C(O)C(C)O1 (stereo not shown) [DOX-2]", 5.09),
]

====

system: HCT-116; experiment: MTS cytotoxicity assay; conditions: Homo sapiens, HCT-116, 72 h, read-out: Cytotoxic concentration IC50, HCT-116
pIC50: −log10 of the molar value.
Observed Property: pIC50

# Molecule, Observed Property, Reported Result
rows = [
    ("COc1cccc2c1C(=O)c1c(O)c3c(c(O)c1C2=O)CC(O)(C(=O)CO)CC3OC1CC(NC(=O)c2cnc(C)c3c2COC(C)(C)O3)C(O)C(C)O1 (stereo not drawn) [DOX-1]", "pIC50", 5.33),
    ("COc1cccc2c1C(=O)c1c(O)c3c(c(O)c1C2=O)CC(O)(C(=O)CO)CC3OC1CC(NC(=O)/C=C/c2cnc(C)c3c2COC(C)(C)O3)C(O)C(C)O1 (stereo not drawn) [DOX-2]", "pIC50", 5.84),
    ("COc1cccc2c1C(=O)c1c(O)c3c(c(O)c1C2=O)C[C@@](O)(C(=O)CO)C[C@@H]3O[C@H]1C[C@H](N)[C@H](O)[C@H](C)O1 [DOX, Doxorubicin, reference compound]", "pIC50", 5.96),
]
